runDescription: Toxicity in ip dosed CF1 mouse after 0.5 hr
Assay type: organism-based
assayConditions: in vivo

cpdSmiles: Cc1cc(Oc2ccc(/C=N/n3c(-c4ccccc4)nc4ccccc4c3=O)cc2)ccc1Cl
TD50 at 0.5 h: > 350 mg/kg

* * *

runDescription: Lipophilicity, log P of the compound in octanol-phosphate buffer
Assay type: physicochemical
measuredProperty: logP

cpdSmiles: O=c1c2ccccc2nc(-c2ccccc2)n1/N=C/c1ccc(Oc2ccc(F)cc2)cc1
measuredProperty: logP
reportedMeasurement: 6.21
//
cpdSmiles: Cc1ccc(Oc2ccc(/C=N/n3c(C)nc4ccccc4c3=O)cc2)cc1
measuredProperty: logP
reportedMeasurement: 4.32
//
cpdSmiles: Cc1nc2ccccc2c(=O)n1/N=C/c1ccc(Oc2ccc([N+](=O)[O-])cc2)cc1
measuredProperty: logP
reportedMeasurement: 4.01
//
cpdSmiles: CCCc1nc2ccccc2c(=O)n1/N=C/c1ccc(Oc2ccc(Cl)c(C)c2)cc1
measuredProperty: logP
reportedMeasurement: 6.02
//
cpdSmiles: CCCc1nc2ccccc2c(=O)n1/N=C/c1ccc(Oc2ccc(C)cc2)cc1
measuredProperty: logP
reportedMeasurement: 5.45
//
cpdSmiles: Cc1nc2ccccc2c(=O)n1/N=C/c1ccc(Oc2ccccc2)cc1
measuredProperty: logP
reportedMeasurement: 4.01
//
cpdSmiles: CCCc1nc2ccccc2c(=O)n1/N=C/c1ccc(Oc2ccc3c(c2)OCO3)cc1
measuredProperty: logP
reportedMeasurement: 4.82
//
cpdSmiles: O=c1c2ccccc2nc(-c2ccccc2)n1/N=C/c1ccc(Oc2ccc([N+](=O)[O-])cc2)cc1
measuredProperty: logP
reportedMeasurement: 6.12
//
cpdSmiles: CCCc1nc2ccccc2c(=O)n1/N=C/c1ccc(Oc2ccc(F)cc2)cc1
measuredProperty: logP
reportedMeasurement: 5.22
//
cpdSmiles: CCCc1nc2ccccc2c(=O)n1/N=C/c1ccc(Oc2ccc([N+](=O)[O-])cc2)cc1
measuredProperty: logP
reportedMeasurement: 5.18
//
cpdSmiles: CCCc1nc2ccccc2c(=O)n1/N=C/c1ccc(Oc2ccc3ccccc3c2)cc1
measuredProperty: logP
reportedMeasurement: 6.12
//
cpdSmiles: O=c1c2ccccc2nc(-c2ccccc2)n1/N=C/c1ccc(Oc2ccc(Br)cc2)cc1
measuredProperty: logP
reportedMeasurement: 6.39
//
cpdSmiles: Cc1nc2ccccc2c(=O)n1/N=C1/C(=O)Nc2ccccc21
measuredProperty: logP
reportedMeasurement: 2.23
//
cpdSmiles: Cc1nc2ccccc2c(=O)n1/N=C/c1ccc(Oc2ccc(F)cc2)cc1
measuredProperty: logP
reportedMeasurement: 4.21
//
cpdSmiles: O=c1c2ccccc2nc(-c2ccccc2)n1/N=C/c1ccc(Oc2ccccc2)cc1
measuredProperty: logP
reportedMeasurement: 6.13
//
cpdSmiles: Cc1nc2ccccc2c(=O)n1/N=C/c1ccc(Oc2ccc3c(c2)OCO3)cc1
measuredProperty: logP
reportedMeasurement: 4.01
//
cpdSmiles: O=c1c2ccccc2nc(-c2ccccc2)n1/N=C/c1ccc(Oc2ccc3c(c2)OCO3)cc1
measuredProperty: logP
reportedMeasurement: 6.01
//
cpdSmiles: CCCc1nc2ccccc2c(=O)n1/N=C/c1ccc(Oc2ccc(Br)cc2)cc1
measuredProperty: logP
reportedMeasurement: 5.88
//
cpdSmiles: Cc1nc2ccccc2c(=O)n1/N=C/c1ccc(Oc2ccc(Br)cc2)cc1
measuredProperty: logP
reportedMeasurement: 4.64
//
cpdSmiles: O=C1Nc2ccccc2/C1=N\n1c(-c2ccccc2)nc2ccccc2c1=O
measuredProperty: logP
reportedMeasurement: 4.03
//
cpdSmiles: CCCc1nc2ccccc2c(=O)n1/N=C1/C(=O)Nc2ccccc21
measuredProperty: logP
reportedMeasurement: 3.23
//
cpdSmiles: Cc1nc2ccccc2c(=O)n1/N=C/c1ccc(Oc2ccc(Cl)cc2)cc1
measuredProperty: logP
reportedMeasurement: 4.6
//
cpdSmiles: CCCc1nc2ccccc2c(=O)n1/N=C/c1ccc(Oc2ccccc2)cc1
measuredProperty: logP
reportedMeasurement: 5.2
//
cpdSmiles: Cc1ccc(Oc2ccc(/C=N/n3c(-c4ccccc4)nc4ccccc4c3=O)cc2)cc1
measuredProperty: logP
reportedMeasurement: 6.29
//
cpdSmiles: O=c1c2ccccc2nc(-c2ccccc2)n1/N=C/c1ccc(Oc2ccc(Cl)cc2)cc1
measuredProperty: logP
reportedMeasurement: 6.38
//
cpdSmiles: Cc1cc(Oc2ccc(/C=N/n3c(C)nc4ccccc4c3=O)cc2)ccc1Cl
measuredProperty: logP
reportedMeasurement: 4.41
//
cpdSmiles: CCCc1nc2ccccc2c(=O)n1/N=C/c1ccc(Oc2ccc(Cl)cc2)cc1
measuredProperty: logP
reportedMeasurement: 5.78
//
cpdSmiles: Cc1cc(Oc2ccc(/C=N/n3c(-c4ccccc4)nc4ccccc4c3=O)cc2)ccc1Cl
measuredProperty: logP
reportedMeasurement: 6.52
//
cpdSmiles: Cc1nc2ccccc2c(=O)n1/N=C/c1ccc(Oc2ccc3ccccc3c2)cc1
measuredProperty: logP
reportedMeasurement: 5.22
//
cpdSmiles: O=c1c2ccccc2nc(-c2ccccc2)n1/N=C/c1ccc(Oc2ccc3ccccc3c2)cc1
measuredProperty: logP
reportedMeasurement: 6.53
